# experiment description: 14C assay: 14CO2 capture from [14C]-carboxyl-labeled dicamba with IPTG-induced recombinant E. coli cells
# experimental conditions: IPTG-induced recombinant E. coli cells; 14CO2 from [14C]-carboxyl-labeled dicamba
assay metric: Dicamba Decarboxylase Activity

28 (protein, listed as Sphingomonas paucimobilis) MARLIATEEAVTFQPVVDALRAHSRTDDASLDMILVRDVYGDEPARPAMIGRLSDVTGERLAEMDSNGVDMHLLSLTAPGVQMFDAETGTRLARIANDLMAQTVAANPTRFAGLGTFAPQDPASAAREIERVATQLRLNGLVINSHTNDLYYDDPFFHPVFEAIEASGLALYIHPRAPSKQIDRAFRDYGMNSAIWGYGIETSTNAVRMILSGLFDRFPRLKIVLGHMGEAIPFWLWRLDYMHGNATTFGGAPKLKLKPSEYFRRNFAITTSGVESHAALRYSIEVLGPENVMWAIDYPYQPMAPAVQFIRTAPIPEDVKAMVAGGNAARIFRIT | High
25 (protein, listed as Acidovorax avenae) MAQGKIGLEEHFAIPETLQDSAGFVPGDYWKELSLRLLDIHERRLREMDENGMEMMILSLNAPAVQAIPDTKKAVEIAVRANDFLAEQVARRPDRFQAFAALPMQDPDLATRELERCMQDLGFRGALVNGFSQVGTPENVVYYDAPQYGDFWAAVERLDAPFYLHPRNPIASWAQIYQGHPWLMGPTWAFAQETAVHALRLMASGLFDRHPGLRIILGHLGEGLPYNMWRVDHRNAWVDMPKGYPAKRKLCDYFHENFYLTTSGNFRTQTLIDALLEVGADRILFSTDWPFENVDHAAHWFDDAAISEADRLKIGRTNALSLFKLPQG | Low
34 (protein, Cupriavidus necator) MAQGKIGLEEHFAIPETLNDSAGFVPGDYWKELSRRLLDIQDDRLRQMDENGMEMMLLSLNAPAVQAVPDRKQACELAVRANDFLAEQVSRRPDRFQALAALPLQDPDFATVELTRCVNELGMRGALVNGFSQIDTPDNVVYYDAPQYASFWAAVEKLDVPFYLHPRNPIASWAQIYDGHPWLLGPTWAFGQETAVHALRLMASGLFDRHPALQIVLGHLGEGLPYSLWRIDNRNAWVKAPKTHPAKKTFRHYFQQNFHLTTSGNFHNQTLIDAILEIGADRILFSTDWPFENIDHAAKWFDSASISEADRTKIGRTNAMKLFKLVA | High
23 (protein, listed as Aplysina aerophoba) MAIDIDARSQPGLETARRAMSRRDFLGGAAAFGITAAATTALPASTAAGEEEDLFLLGLEEHFATAELRRLNGIQFPQGTPRFDINDVGAGRIADMDAAGIDIQVLSALTPGAQNLPGAEGVAYARRLNSWVAHEVIPAYPGRFRAFATLPLSEPQAAADELEYAVRELGFLGCMTYGAVDGKFLDHADFVPVLARAETLDVPIYIHPNWASPQVMDTYYNGLGNEWVSRVLSGAGYGWHQEVALQCLRMIASGVFDRFPRLQIIVGHMGEGLPFFYWRFGDDLARITADTLEKPVQQYFHDNFWITTSAFFRDELLRLVLSVMGEDRVMFAVDYPFVSNKVGADWFRAVDLPRNVKEKIAHKNAERLLKIGPF | Low
